# Test system: PC-3 prostate
# assay.name: NCI tumour cell line growth inhibition, 48 h
We begin with a simple list: items and their reported GI50.
measured.metric: GI50

| compound | observed.result |
| --- | --- |
| CC[C@H](NC(=O)[C@H](C)NC)C(=O)N1C[C@@H](O)C[C@H]1Cc1c(-c2[nH]c3cc(F)ccc3c2C[C@@H]2C[C@H](O)CN2C(=O)[C@H](CC)NC(=O)[C@H](C)NC)[nH]c2cc(F)ccc12 | > 100 µM |
| CCOC(=O)c1cc(C#N)c(=O)n(/N=C(\C)c2ccncc2)c1O | > 100 µM |
| Cc1cc(C)c([O-])c(CN(C)CCN(C)Cc2cc(C)cc(C)c2[O-])c1.O=C([O-])c1cccc(C(=O)[O-])n1.[Ti+4] | 2.7 µM |
| CC(O)c1cccc(NCc2c3ccccc3c(=O)n3c2oc2ccccc23)c1 (configuration not stated) | 7.11 µM |
| CC1=C2[C@@H](CC1)[C@]1(C)O[C@@](C3CCCCC3)(C[C@H]1OC(=O)CO)[C@H]2OC(=O)/C=C/c1ccccc1 | 6.33 µM |
| CN[C@@H](C)C(=O)N[C@H](C(=O)N1CCC[C@H]1C(=O)N[C@H]1c2ccccc2C[C@H]1OCC#CC#CCO[C@@H]1Cc2ccccc2[C@@H]1NC(=O)[C@@H]1CCCN1C(=O)[C@@H](NC(=O)[C@H](C)NC)C1CCCCC1)C1CCCCC1 | 6.04 µM |
| Cc1cc(I)cc(CN(C)CCCN2CCSCC2)c1O | 29.8 µM |
| O=C(O[C@H]1CN[C@H](C#Cc2cc3ncnc(Nc4ccc5c(ccn5Cc5cc(F)ccc5F)c4)c3s2)C1)N1CCOCC1 | 5.52 µM |
| COc1cc2c(cc1OCCCOc1cc3c(cc1OC)C(=O)N1C[C@H](F)C[C@H]1C=N3)N=C[C@@H]1C[C@@H](F)CN1C2=O | 12.6 µM |
| C=CCC(N[C@H](CO)c1ccccc1)c1ccc2ccccc2n1 (some centres not stated) | > 100 µM |
| Nc1c(C(=O)c2ccc(Cl)cc2)sc(Nc2ccccc2)c1-c1nc2ccccc2s1 | 2.35 µM |
| COc1cc(OC)c(/C=C/S(=O)(=O)Cc2cnc(OC)c(N)c2)c(OC)c1 | < 0.0187 µM |

###

# Test system: SK-MEL-28 melanoma
# assay.name: NCI tumour cell line growth inhibition, 48 h
We begin with a simple list: items and their reported TGI.

| molecule | TGI |
| --- | --- |
| CC12OC(c3ccccc3)=CC(c3ccc(Cl)cc3)=C1C(c1ccccc1)=CC2=O (centres undefined) | > 100 µM |
| O=C(c1ccccc1)c1ccc2nc3n(c2c1)C(c1c(F)cccc1F)SC3 (centres undefined) | > 70.5 µM |
| CC(=O)Oc1cc2c(n(C)c1=O)-c1ccccc1C2 | > 100 µM |
| CCNC(=O)CCN(C(=O)O)S(=O)(=O)c1ccc(NC(=O)c2ccccc2)cc1 | > 100 µM |
| O=S(=O)(NC1=NCCN1C(=S)SN1CCn2c1nsc2=S)c1ccc(Br)cc1 | > 100 µM |
| O=[N+]([O-])c1cccc(/C=N\NS(=O)(=O)c2ccc(Cl)cc2)c1O | > 100 µM |
| CC(C)CS(=O)(=O)/C(=C(\c1ccc(Br)cc1)S(=O)(=O)CC(C)C)c1ccc(Br)cc1 | > 100 µM |
| CCOC(=O)C(Cc1c[nH]c2ccc(N)cc12)(NC(C)=O)C(=O)OCC | > 1000 µM |
| CC[C@](O)(CC(=O)O[C@H]1C(=O)O[C@@H]2C[C@H]3C(C)=CC(=O)[C@@H](O)[C@]3(C)[C@H]3[C@@]4(O)OC[C@]32[C@@H]1[C@@H](C)[C@H]4O)C(C)C | < 0.01 µM |

###

We begin with a simple list: items and their reported TGI.
# System: SK-MEL-5 melanoma
# assay.name: NCI tumour cell line growth inhibition, 48 h
measured.metric: TGI

| molecule | measured.metric | observed.result |
| --- | --- | --- |
| OC(CCN1CCCCC1)(c1ccccc1)c1ccccc1 | TGI | > 100 µM |
| CCNC(=O)CCN(C(=O)O)S(=O)(=O)c1ccc(NC(=O)c2ccccc2)cc1 | TGI | > 100 µM |
| COc1cc(OCc2nc3ccccc3n3cccc23)cc(OC)c1OC | TGI | 9.35 µM |
| COCC(N=CN1CCCc2ccccc2[C@@H]1CCCCl)C(C)(C)C (some centres not stated) | TGI | 9.35 µM |
| CC(C)c1ccc(C(=O)Nc2nc3ccc(O)cc3s2)cc1 | TGI | > 100 µM |
| NNC(=O)/C(=C/c1ccc(Cl)c(Cl)c1)NC(=O)c1ccccc1 | TGI | > 100 µM |
| O=S(=O)(N/N=C/c1ccc(/C=N/NS(=O)(=O)c2ccccc2)cc1)c1ccccc1 | TGI | > 100 µM |

###

# Test system: SF-295 CNS
# assay.name: NCI tumour cell line growth inhibition, 48 h
We begin with a simple list: items and their reported TGI.

| compound | TGI |
| --- | --- |
| O=C1Nc2ccc(C(=O)c3ccco3)cc2/C1=C/c1cc(Cl)c(O)c(Cl)c1 | > 25 µM |
| O=c1c2cc(Cl)ccc2oc2ccc(OCCCCCN3CCCCC3)cc12 | 13.5 µM |
| Cc1cc(C)c([O-])c(CN(C)CCN(C)Cc2cc(C)cc(C)c2[O-])c1.O=C([O-])c1cccc(C(=O)[O-])n1.[Ti+4] | > 100 µM |
| COC(=O)CCc1cc(OC)c2c(c1)C(C(=O)OC)C(c1ccc(OC)c(OC)c1)O2 (centres undefined) | > 100 µM |
| C=C1C(=O)O[C@H]2[C@H]1CC/C(CNC(=O)c1cc3cc(OC)ccc3[nH]1)=C\CC[C@@]1(C)O[C@@H]21 | 18.7 µM |
| CC(C)(C)[Si](C)(C)O[C@@H](C(=O)OC1C=CCCC1)[C@@H](NC(=O)c1ccccc1)c1ccccc1 (some centres undefined) | 65.1 µM |
| Cc1ccc(-n2cnc3c(N)nc(N)nc32)cc1 | > 100 µM |
| CCOC(=O)C1=CN/C(=C(/C)C(=O)OC)SC1C(=O)OCC (centres undefined) | > 100 µM |
| COc1ccc2cc(Oc3ccc(Cl)cc3)c(=O)oc2c1 | > 100 µM |

###

# System: ACHN renal
# assay.name: NCI tumour cell line growth inhibition, 48 h
measured.metric: TGI

| compound | measured.metric | observed.result |
| --- | --- | --- |
| COc1cc(OCc2ccc3nc(-c4ccccc4)c(Cl)nc3c2)cc(OC)c1OC | TGI | > 100 µM |
| CCCCc1c2c(nc3c1CCC/C3=C\c1ccccc1)C(=O)CCC2 | TGI | 95.2 µM |
| Cc1c(NC(=O)C(C)(C)Br)c(=O)oc2c(C)c3occc(=O)c3cc12 | TGI | > 100 µM |
| N=c1oc2ccc([N+](=O)[O-])cc2cc1C(=O)NCc1ccccc1 | TGI | 31.1 µM |
| OC1(CCc2ccccc2)COC(C(F)(F)F)(C(F)(F)F)C1 (stereo unspecified) | TGI | > 100 µM |
| CN(C)c1ccc(/C=N\NC(=O)c2ccccc2Nc2ccccc2C(=O)N/N=C/c2ccc(N(C)C)cc2)cc1 | TGI | > 100 µM |

###

# Tested on: DU-145 prostate
# assay.name: NCI tumour cell line growth inhibition, 48 h
We begin with a simple list: items and their reported TGI.

| molecule | TGI |
| --- | --- |
| CCN(CC)CCC(=O)NC1c2ccc(Cl)cc2Oc2c(C)cccc21 (stereo not given) | 32.9 µM |
| CC(C)(C)[Si](C)(C)O[C@@H](C(=O)OC1C=CCCC1)[C@@H](NC(=O)c1ccccc1)c1ccccc1 (stereo not given in full) | > 100 µM |
| COc1cc(/C=C/C(=O)CC(=O)/C=C/c2cc(OC)c(OC)c(OC)c2)cc(OC)c1OC | 31.9 µM |
| CCOC(=O)CCC(NC(=O)c1ccc(CNc2nc3ccccc3nc2C(=O)OCC)cc1)C(=O)OCC (stereo not given) | > 100 µM |
| N#C/C(=C\c1cn(Cc2ccccc2)c2ccccc12)c1nn(-c2ccccc2)c(N)c1C#N | 32.2 µM |
| COc1ccc2c(c1)/C(=C\c1c(C)nc3n1CCS3)C(=O)N2 | > 100 µM |
| O=S(=O)(NC1=NCCN1C(=S)SN1CCn2c1nsc2=S)c1ccc(Br)cc1 | > 100 µM |
| CSc1nc(C)c2c(n1)SCC2 | > 10 µM |
| O=C1CC(=O)NC(=NN2C(=O)/C(=C/C(=O)c3ccco3)N=C2c2ccccc2)N1 | > 100 µM |
| OC(CCN1CCCCC1)(c1ccccc1)c1ccccc1 | > 100 µM |

Each recorded value in this set is attributed to PubChem BioAssay (NCI).
